# TGT: T1, human serum albumin (human, UniProt P02768 25-609)
# T1 construct: mature; Bought protein; biotinylated in the Octet and HTRF assays; also called HSA; HuSA
# ASSAY DETAILS: SPR (Biacore), immobilised HSA, Affimer analyte
We begin with a simple list: items and their reported kon.
Quick reminder: number only, in M⁻¹ s⁻¹, skip the unit.

BINDER	kon (M⁻¹ s⁻¹)
HSA-41 (designed binder, also called HSA-41 parent; HSA-41 AH parent) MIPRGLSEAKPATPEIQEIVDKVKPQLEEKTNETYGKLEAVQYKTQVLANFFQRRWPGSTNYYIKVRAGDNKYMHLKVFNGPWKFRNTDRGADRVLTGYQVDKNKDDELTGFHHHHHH	1.48e+06
AVA04-236 XT8 (designed binder) MIPRGLSEAKPATPEIQEIVDKVKPQLEEKTNETYGKLEAVQYKTQVLAKEHGPDSWWSTNYYIKVRAGDNKYMHLKVFNGPQEKNQWVEEADRVLTGYQVDKNKDDELTGFAEAAAKEAAAKEAAAKEAAAKEAAAKEAAAKMIPRGLSEAKPATPEIQEIVDKVKPQLEEKTNETYGKLEAVQYKTQVLANFFQRRWPGSTNYYIKVRAGDNKYMHLKVFNGPWKFRNTDRGADRVLTGYQVDKNKDDELTGFHHHHHH	267000
AVA04-261 XT9 (designed binder) MIPRGLSEAKPATPEIQEIVDKVKPQLEEKTNETYGKLEAVQYKTQVLAHAYGPRDWDSTNYYIKVRAGDNKYMHLKVFNGPPADHVLEEAADRVLTGYQVDKNKDDELTGFGGGGSGGGGSGGGGSGGGGSGGGGSGGGGSMIPRGLSEAKPATPEIQEIVDKVKPQLEEKTNETYGKLEAVQYKTQVLANFFQRRWPGSTNYYIKVRAGDNKYMHLKVFNGPWKFRNTDRGADRVLTGYQVDKNKDDELTGFHHHHHH	269000

Next item in the queue.
Given the binder AVA04-269 XT11 (designed binder) MIPRGLSEAKPATPEIQEIVDKVKPQLEEKTNETYGKLEAVQYKTQVLAKEYGPEEWWSTNYYIKVRAGDNKYMHLKVFNGPGDYEQVLIHADRVLTGYQVDKNKDDELTGFGGGGSGGGGSGGGGSGGGGSGGGGSGGGGSMIPRGLSEAKPATPEIQEIVDKVKPQLEEKTNETYGKLEAVQYKTQVLANFFQRRWPGSTNYYIKVRAGDNKYMHLKVFNGPWKFRNTDRGADRVLTGYQVDKNKDDELTGFHHHHHH , what is its reported kon? 151000
